# % ERα remaining listing for each entry below
# target system: ERα (Homo sapiens (Human))
# Sequence (P03372 whole entry): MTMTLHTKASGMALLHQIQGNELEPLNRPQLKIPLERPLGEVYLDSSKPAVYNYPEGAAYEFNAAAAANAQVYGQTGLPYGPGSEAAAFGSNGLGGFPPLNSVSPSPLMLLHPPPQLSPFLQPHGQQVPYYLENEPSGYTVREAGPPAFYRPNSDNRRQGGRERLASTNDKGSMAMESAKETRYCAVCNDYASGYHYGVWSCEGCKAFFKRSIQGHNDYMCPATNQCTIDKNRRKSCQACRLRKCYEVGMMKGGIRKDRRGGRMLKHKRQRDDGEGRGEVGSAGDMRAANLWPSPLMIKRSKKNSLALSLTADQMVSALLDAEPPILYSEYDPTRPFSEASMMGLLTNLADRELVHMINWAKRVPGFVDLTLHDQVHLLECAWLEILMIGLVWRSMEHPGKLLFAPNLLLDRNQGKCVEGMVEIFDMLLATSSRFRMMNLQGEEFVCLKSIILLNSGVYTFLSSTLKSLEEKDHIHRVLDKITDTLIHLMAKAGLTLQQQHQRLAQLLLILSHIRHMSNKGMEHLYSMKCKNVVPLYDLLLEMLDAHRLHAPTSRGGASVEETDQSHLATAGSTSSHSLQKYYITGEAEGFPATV
# assay method text: ERα degradation (MCF7 cells), in-cell Western
# Type: cell-based
# experimental conditions: remaining ERα protein at 10 μM ligand, MCF7 cells, relative to DMSO control
outcome measure: % ERα remaining

smiles_representation=Cc1cc(C)cc(-c2sc3cc(O)ccc3c2Oc2ccc(/C=C/C(=O)O)cc2)c1 target_system="ERα (Homo sapiens (Human))" result=22%
smiles_representation=CC(C)OC(=O)/C=C/c1ccc(Oc2c(-c3ccccc3C(C)C)sc3cc(O)ccc23)cc1 target_system="ERα (Homo sapiens (Human))" result=29%
smiles_representation=Cn1cnc(/C=C/c2ccc(Oc3c(-c4ccc(O)cc4)sc4cc(O)ccc34)cc2)c1 target_system="ERα (Homo sapiens (Human))" result=47%
smiles_representation=Cc1cc(F)ccc1-c1sc2cc(O)ccc2c1Oc1ccc(/C=C/c2nnc(C)n2C)cc1 target_system="ERα (Homo sapiens (Human))" result=17%
smiles_representation=O=C(O)/C=C/c1ccc(Oc2c(-c3ccc(O)cc3)sc3c(F)c(O)c(F)cc23)cc1 target_system="ERα (Homo sapiens (Human))" result=25%
smiles_representation=COC(=O)/C=C/c1ccc(Oc2c(-c3ccccc3C(C)C)sc3cc(O)ccc23)cc1 target_system="ERα (Homo sapiens (Human))" result=30%
smiles_representation=Cc1cccc(-c2sc3cc(O)ccc3c2Oc2ccc(/C=C/C(=O)O)cc2)c1C target_system="ERα (Homo sapiens (Human))" result=14%
smiles_representation=CC(C)(C)c1ccc(-c2sc3cc(O)ccc3c2Oc2ccc(/C=C/C(=O)O)cc2)cc1 target_system="ERα (Homo sapiens (Human))" result=18%
smiles_representation=Cc1cc(-c2sc3cc(O)ccc3c2Oc2ccc(/C=C/C(=O)O)cc2)ccc1O target_system="ERα (Homo sapiens (Human))" result=26%
smiles_representation=CC(=O)Oc1ccc2c(Oc3ccc(/C=C/C(=O)O)cc3)c(-c3ccccc3C(C)C)sc2c1 target_system="ERα (Homo sapiens (Human))" result=21%
smiles_representation=Cc1cc(F)ccc1-c1sc2cc(O)ccc2c1Oc1ccc(/C=C/c2nnnn2C)cc1 target_system="ERα (Homo sapiens (Human))" result=41%
smiles_representation=CCCn1nnnc1/C=C/c1ccc(Oc2c(-c3ccc(F)cc3C)sc3cc(O)ccc23)cc1 target_system="ERα (Homo sapiens (Human))" result=43%
